Data origin: patent US20170281720A1

Target: T1, MDMX (In-house, 40 kD) (UniProt O15151 1-120, limits assumed)
T1 construct: The construct used is unknown; also called MDM4
T1 sequence (looked up): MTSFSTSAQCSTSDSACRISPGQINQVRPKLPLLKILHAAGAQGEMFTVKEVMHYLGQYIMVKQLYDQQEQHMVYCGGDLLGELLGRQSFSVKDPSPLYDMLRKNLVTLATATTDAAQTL
Assay: Ki (MDMX) grade; competitive FP vs FAM-labeled linear peptide; + = >1000 nM
Bridges are numbered along the chain shown (N, C = ends). [ ]: non-standard residue; d: D form. R8 = C=CCCCCCC[C@@](C)(N)C(=O)O; hLeu = CC(C)CC[C@H](N)C(=O)O; S5 = C=CCCC[C@](C)(N)C(=O)O; Decac = not defined here
property: Ki

# binder, result
measured = [
    ("Decac-LTF[R8]EYWAQ[hLeu][S5]SAA-NH2 (staple 4-11; reading uncertain, Peptidomimetic macrocycle (stapled p53-derived peptide)) [SP282]", "> 1000 nM"),
]
